Below, each entry is listed with its recorded z-score.
assay.summary: S. cerevisiae growth modulation with rapamycin, primary screen, strain BY4716, OD600, 96 h (AID 1091); note: test concentration not given here
measurement.conditions: higher = more signal, called active from +8 up or from −8 down
quantity: z-score

• C=CCC(OC(C)=O)[C@@H]1[C@@H](N(Cc2cccc3ccccc23)C(=O)c2ccc(-c3ccccc3)cc2)c2cc(OCCCO)ccc2N1C(=O)Cc1ccc(OC)cc1 (stereo partly drawn) = -1.03
• [N-]=[N+]=NCc1ccccc1[C@@H]1OC(c2ccc(OCCCO)cc2)=N[C@]1(CCS(=O)(=O)c1ccccc1)C(=O)NCc1ccccc1 = 3.49
• CN1C(=O)C2C=CC(C(O)c3ccccc3)N(Nc3ccccc3)C2C1=O (stereo not drawn) = 0.646
• CCCCCCC#C[Si](O[C@H](c1ccccc1)c1cn([C@H](CO)Cc2ccccc2)nn1)(C(C)C)C(C)C = -1.57
• CC(C)c1ccc(NN2C(C(O)c3cc(C(F)(F)F)cc(C(F)(F)F)c3)C=CC3C(=O)N(c4ccccc4)C(=O)C32)cc1 (stereo not drawn) = 3.38
• O=C(NCc1ccc(F)cc1)[C@H]1C[C@H]2C(=O)N[C@@H](Cc3ccccc3)C(=O)N2[C@H]1c1ccc(O)cc1 = 2.14
• COC(=O)[C@@]1(Cc2ccccc2)[C@H]2c3cc(C(=O)N4CCCC4)n(Cc4cccc5ccccc45)c3C[C@H]2CN1C(=O)c1ccccc1 = 1.43
• CCOC(=O)C=Cc1cc([N+](=O)[O-])ccc1O = -1.62
